- system: human TLR8 (Homo sapiens, UniProt Q9NR97)
- Sequence (Q9NR97 27-1041): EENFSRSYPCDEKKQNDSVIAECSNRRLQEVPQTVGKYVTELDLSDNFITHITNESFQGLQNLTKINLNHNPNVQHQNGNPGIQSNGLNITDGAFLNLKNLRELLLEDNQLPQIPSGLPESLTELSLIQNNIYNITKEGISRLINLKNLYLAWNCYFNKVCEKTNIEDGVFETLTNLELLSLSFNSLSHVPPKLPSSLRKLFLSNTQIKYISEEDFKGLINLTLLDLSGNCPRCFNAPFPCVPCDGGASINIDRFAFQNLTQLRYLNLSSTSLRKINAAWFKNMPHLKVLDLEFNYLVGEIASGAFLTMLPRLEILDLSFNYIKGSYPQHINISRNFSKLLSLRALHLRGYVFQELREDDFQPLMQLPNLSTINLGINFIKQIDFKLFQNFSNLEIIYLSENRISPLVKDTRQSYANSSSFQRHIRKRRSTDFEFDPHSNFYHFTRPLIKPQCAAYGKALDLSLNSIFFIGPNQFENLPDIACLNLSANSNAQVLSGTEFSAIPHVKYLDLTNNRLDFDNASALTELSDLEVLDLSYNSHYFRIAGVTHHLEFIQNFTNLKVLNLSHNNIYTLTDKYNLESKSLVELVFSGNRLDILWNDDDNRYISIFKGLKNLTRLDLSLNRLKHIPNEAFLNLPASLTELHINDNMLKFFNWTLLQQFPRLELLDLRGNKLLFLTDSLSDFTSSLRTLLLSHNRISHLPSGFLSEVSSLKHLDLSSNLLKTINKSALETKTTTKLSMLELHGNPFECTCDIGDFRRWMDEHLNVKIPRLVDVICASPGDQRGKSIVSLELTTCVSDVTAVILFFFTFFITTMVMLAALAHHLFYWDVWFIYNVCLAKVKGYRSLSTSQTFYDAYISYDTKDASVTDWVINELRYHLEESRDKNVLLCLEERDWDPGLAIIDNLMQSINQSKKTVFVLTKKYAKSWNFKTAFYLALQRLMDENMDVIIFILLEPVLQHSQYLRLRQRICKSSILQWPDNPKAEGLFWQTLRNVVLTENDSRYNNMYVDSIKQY
- assayText: TLR8 inhibition reporter assay (HEK-Blue cells, SEAP reporter, R848 stimulation)
- particulars: HEK-Blue cells overexpressing human TLR8, SEAP reporter, R848 15.9 μM
valueKind: IC50

Known results for compounds:
[
  {
    "molSmiles": "COc1cc(-c2[nH]c3ccc(C4CCN(CC(=O)N(C)C)CC4)cc3c2C(C)C)cn2ccnc12",
    "system": "human TLR8 (Homo sapiens, UniProt Q9NR97)",
    "IC50": "< 100 nM"
  },
  {
    "molSmiles": "CC(C)c1c(-c2c[nH]c3ncccc23)[nH]c2ccc(C3CCNCC3)cc12",
    "system": "human TLR8 (Homo sapiens, UniProt Q9NR97)",
    "IC50": "< 100 nM"
  }
]

Now take the following compound into account.
Provide the documented IC50 with human TLR8 (Homo sapiens, UniProt Q9NR97) as the system for CCc1c(-c2cccc3c2cnn3C)[nH]c2ccc(C3CCN(C(=O)CN4CCCN(C)CC4)CC3)cc12
> 50000 nM

----------
- system: human TLR8 (Homo sapiens)
- assayText: TLR8 inhibition reporter assay (HEK-Blue cells, SEAP reporter, R848 stimulation)
- particulars: HEK-Blue cells overexpressing human TLR8, SEAP reporter, R848 15.9 μM
valueKind: IC50

Known results for molecules:
[
  {
    "molecule": "CC(C)c1c(-c2ccnc3c2ccn3S(C)(=O)=O)[nH]c2ccc(C3CCN(C(=O)CN(C)C)CC3)cc12 [Example 450]",
    "IC50": "< 100 nM"
  },
  {
    "molecule": "Cc1cc(-c2[nH]c3ccc(C4CCN(C(=O)CN5C[C@H]6CC[C@@H](C5)O6)CC4)cc3c2C(C)C)cn2nnnc12 [Example 484]",
    "IC50": "< 100 nM"
  },
  {
    "molecule": "CN(C)C(=O)CN1CCC(c2ccc3[nH]c(-c4ccn5ccnc5c4)c(CC(F)F)c3c2)CC1 [Example 445]",
    "IC50": "100 to 1000 nM"
  },
  {
    "molecule": "CC(C)c1c(-c2ccnc3[nH]ncc23)[nH]c2cc(F)c(C3CCN(CC4CCN(C(C)C)C4)CC3)cc12 (centres unmarked) [Example 852]",
    "IC50": "< 100 nM"
  }
]

Provide the documented IC50 with human TLR8 (Homo sapiens) as the system for CCOc1cc(-c2[nH]c3ccc(C4CCN(CC(=O)N(C)C)CC4)cc3c2C(C)C)cc2ncnn12 [Example 350]
< 100 nM

Provide the documented IC50 with human TLR8 (Homo sapiens) as the system for CC(C)c1c(-c2ccnc3[nH]ccc23)[nH]c2ccc(C3CCN(C(=O)CN(C)C)CC3)cc12 [Example 564]
< 100 nM

Provide the documented IC50 with human TLR8 (Homo sapiens) as the system for Cc1cc2nccn2cc1-c1[nH]c2ccc(C3CCNCC3)cc2c1C(C)C [Example 110]
< 100 nM

Provide the documented IC50 with human TLR8 (Homo sapiens) as the system for CCc1c(-c2ccnc3[nH]ncc23)[nH]c2ccc(C3CCNCC3O)cc12 (centres unmarked) [Example 175]
100 to 1000 nM

Provide the documented IC50 with human TLR8 (Homo sapiens) as the system for CC(C)c1c(-c2ccnc3[nH]ncc23)[nH]c2ccc(C3CCN(C4CCNCC4C)CC3)cc12 (centres unmarked) [Example 834]
< 100 nM

Provide the documented IC50 with human TLR8 (Homo sapiens) as the system for CC(C)c1c(-c2ccnc3[nH]ncc23)[nH]c2ccc(C3CCN(C(=O)CN4CCNC(=O)C4)CC3)cc12 [Example 587]
100 to 1000 nM

Provide the documented IC50 with human TLR8 (Homo sapiens) as the system for CC(C)c1c(-c2ccnc3[nH]ncc23)[nH]c2ccc(C3CCN(C(=O)CCC(=O)N(C)C)CC3)cc12 [Example 613]
100 to 1000 nM

Provide the documented IC50 with human TLR8 (Homo sapiens) as the system for CCc1c(-c2cnc3ncnn3c2)[nH]c2ccc(C3CCNCC3)cc12 [Example 26]
100 to 1000 nM

Provide the documented IC50 with human TLR8 (Homo sapiens) as the system for CC(C)c1c(-c2ccnc3[nH]ncc23)[nH]c2ccc(C3CCN(Cc4cc(F)cnc4Cl)CC3)cc12 [Example 913]
100 to 1000 nM

Provide the documented IC50 with human TLR8 (Homo sapiens) as the system for Cc1cc(-c2[nH]c3ccc(C4CCN(C(=O)CN5CCCC5)CC4)cc3c2C(C)C)cn2nnnc12 [Example 470]
< 100 nM

----------
Recorded IC50 for the following compounds
- system: human TLR9 (Homo sapiens, UniProt Q9NR96)
- Sequence (Q9NR96 26-1032): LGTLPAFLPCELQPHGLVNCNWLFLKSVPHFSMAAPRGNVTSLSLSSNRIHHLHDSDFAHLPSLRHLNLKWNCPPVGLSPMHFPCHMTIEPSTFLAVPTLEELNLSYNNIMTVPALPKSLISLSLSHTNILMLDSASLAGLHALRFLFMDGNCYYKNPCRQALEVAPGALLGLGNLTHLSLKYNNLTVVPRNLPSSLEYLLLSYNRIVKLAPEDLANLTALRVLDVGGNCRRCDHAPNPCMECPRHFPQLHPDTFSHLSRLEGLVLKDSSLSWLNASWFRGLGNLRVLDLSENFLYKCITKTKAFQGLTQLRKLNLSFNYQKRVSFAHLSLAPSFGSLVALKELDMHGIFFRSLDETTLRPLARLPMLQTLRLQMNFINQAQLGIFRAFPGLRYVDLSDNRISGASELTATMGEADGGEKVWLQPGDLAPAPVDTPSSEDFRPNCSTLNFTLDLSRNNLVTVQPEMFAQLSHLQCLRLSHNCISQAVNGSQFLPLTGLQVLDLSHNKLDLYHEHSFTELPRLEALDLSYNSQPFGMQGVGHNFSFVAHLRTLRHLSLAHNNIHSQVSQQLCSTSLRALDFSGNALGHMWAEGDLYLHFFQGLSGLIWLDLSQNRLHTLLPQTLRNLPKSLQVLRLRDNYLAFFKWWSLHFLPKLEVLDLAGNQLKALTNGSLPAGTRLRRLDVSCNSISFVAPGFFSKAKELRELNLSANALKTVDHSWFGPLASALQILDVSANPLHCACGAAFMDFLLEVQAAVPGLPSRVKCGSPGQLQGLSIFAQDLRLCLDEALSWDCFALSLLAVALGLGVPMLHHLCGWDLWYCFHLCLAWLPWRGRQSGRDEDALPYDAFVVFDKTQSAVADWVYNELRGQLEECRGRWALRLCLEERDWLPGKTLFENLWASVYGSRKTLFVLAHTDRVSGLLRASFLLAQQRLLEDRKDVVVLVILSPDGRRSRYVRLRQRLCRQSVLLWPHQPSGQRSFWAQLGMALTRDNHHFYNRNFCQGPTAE
- assayText: TLR9 inhibition reporter assay (HEK-Blue cells, SEAP reporter, ODN2006 stimulation)
- particulars: HEK-Blue cells overexpressing human TLR9, SEAP reporter, ODN2006 5 nM

[
  {
    "compound": "CC(C)c1c(-c2cc(CO)c3nccn3c2)[nH]c2ccc(C3CCNCC3)cc12",
    "measured": "100 to 1000 nM"
  },
  {
    "compound": "CNCCN1CCC(c2ccc3[nH]c(-c4ccc5ncccc5c4)c(C)c3c2)CC1",
    "measured": "100 to 1000 nM"
  },
  {
    "compound": "CC(C)c1c(-c2ccnc3[nH]ncc23)[nH]c2ccc(C3CCN(CC(C)(C)CN(C)C)CC3)cc12",
    "measured": "100 to 1000 nM"
  },
  {
    "compound": "Cc1nn2ccc(-c3[nH]c4ccc(C5CCN(CC(=O)N(C)C)CC5)cc4c3C(C)C)cc2c1F",
    "measured": "1000 to 50000 nM"
  },
  {
    "compound": "Cc1cc(-c2[nH]c3ccc(C4CCN(C(=O)CN(C)C)CC4)cc3c2C(C)C)cc2c1oc(=O)n2C",
    "measured": "1000 to 50000 nM"
  }
]

Which IC50 is reported for this compound? CCc1c(-c2ccnc3[nH]ncc23)[nH]c2ccc(C3CCN(Cc4cc(C)n[nH]4)CC3)cc12
1000 to 50000 nM

Which IC50 is reported for this compound? Cc1cc(-c2[nH]c3ccc(C4CCN(C(=O)CN5CCCCC5)CC4)cc3c2C(C)C)cn2nnnc12
1000 to 50000 nM

----------
Recorded IC50 for the following compounds
- system: human TLR9 (Homo sapiens, UniProt Q9NR96)
- Sequence (Q9NR96 26-1032): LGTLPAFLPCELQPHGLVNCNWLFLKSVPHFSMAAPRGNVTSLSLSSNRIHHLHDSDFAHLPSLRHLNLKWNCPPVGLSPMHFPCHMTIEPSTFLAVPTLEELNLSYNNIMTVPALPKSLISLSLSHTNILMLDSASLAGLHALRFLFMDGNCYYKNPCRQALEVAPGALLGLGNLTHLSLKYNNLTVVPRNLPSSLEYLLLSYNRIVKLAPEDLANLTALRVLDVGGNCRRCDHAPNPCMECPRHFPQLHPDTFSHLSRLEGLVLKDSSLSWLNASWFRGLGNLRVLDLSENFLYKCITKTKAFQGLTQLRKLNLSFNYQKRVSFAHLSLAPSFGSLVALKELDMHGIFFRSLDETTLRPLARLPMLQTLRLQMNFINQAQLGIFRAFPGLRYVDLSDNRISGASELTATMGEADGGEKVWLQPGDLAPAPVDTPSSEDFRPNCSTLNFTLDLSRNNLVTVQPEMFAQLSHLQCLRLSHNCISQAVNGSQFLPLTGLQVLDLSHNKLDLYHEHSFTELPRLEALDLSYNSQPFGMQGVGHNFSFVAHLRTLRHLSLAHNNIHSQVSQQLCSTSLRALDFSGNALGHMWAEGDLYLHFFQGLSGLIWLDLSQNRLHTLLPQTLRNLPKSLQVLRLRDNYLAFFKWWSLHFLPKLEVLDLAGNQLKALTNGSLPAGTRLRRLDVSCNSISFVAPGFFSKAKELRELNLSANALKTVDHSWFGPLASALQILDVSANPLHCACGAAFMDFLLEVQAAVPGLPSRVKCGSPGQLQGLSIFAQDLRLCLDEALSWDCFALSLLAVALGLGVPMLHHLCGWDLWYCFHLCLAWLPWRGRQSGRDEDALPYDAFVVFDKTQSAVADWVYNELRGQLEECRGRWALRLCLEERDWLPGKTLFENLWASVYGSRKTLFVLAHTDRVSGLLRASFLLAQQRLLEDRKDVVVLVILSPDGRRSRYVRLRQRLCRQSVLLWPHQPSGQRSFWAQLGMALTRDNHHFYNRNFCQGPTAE
- assayText: TLR9 inhibition reporter assay (HEK-Blue cells, SEAP reporter, ODN2006 stimulation)
- particulars: HEK-Blue cells overexpressing human TLR9, SEAP reporter, ODN2006 5 nM

Known results for compounds:
[
  {
    "compound": "Cc1nnn2ccc(-c3[nH]c4ccc(C5CCNCC5)cc4c3C(C)C)cc12",
    "IC50": "0.1 to 1 µM"
  },
  {
    "compound": "CN1CC(C(=O)N2CCC(c3ccc4[nH]c(-c5ccc6nccn6c5)c(CC(F)F)c4c3)CC2)CC1=O (centres unmarked)",
    "IC50": "> 50 µM"
  },
  {
    "compound": "CCc1c(-c2ccnc3[nH]nc(C)c23)[nH]c2ccc(C3CCNCC3)cc12",
    "IC50": "0.1 to 1 µM"
  },
  {
    "compound": "CC(C)c1c(-c2nc3ccnn3cc2F)[nH]c2ccc(C3CCNCC3)cc12",
    "IC50": "1 to 50 µM"
  }
]

Which IC50 is reported for this compound? Cc1c(-c2[nH]c3ccc(C4CCN(C(=O)CN(C)C)CC4)cc3c2C(C)C)cn2ccnc2c1C
0.1 to 1 µM

Which IC50 is reported for this compound? Cc1cn2cc(-c3[nH]c4ccc(C5CCN(CC(=O)N(C)C)CC5)cc4c3C(C)C)cc(C(F)(F)F)c2n1
0.1 to 1 µM

Which IC50 is reported for this compound? CCc1c(-c2ccnc3[nH]ncc23)[nH]c2ccc(C3CCN(Cc4csc(C(C)C)n4)CC3)cc12
1 to 50 µM
